MEASURED_TARGET: T1, EGFI-Cr1 E26D (human, UniProt P16422 24-63)
T1 construct: not shown: The fused constant region of human immunoglobulin gamma 1 heavy chain (Cr1)
T1 chain: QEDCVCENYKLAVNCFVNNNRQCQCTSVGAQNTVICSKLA
TEST_NAME: direct ELISA, coated EGFI-Cr1 fusion, 0.1 µg/ml antibody

>  <BINDER>
murine monoclonal antibody 12H8 (antibody, mouse IgG2a, V domains shown, Mouse IgG2a, kappa, from hybridoma; also called m342-12H8.3; m12H8) VH: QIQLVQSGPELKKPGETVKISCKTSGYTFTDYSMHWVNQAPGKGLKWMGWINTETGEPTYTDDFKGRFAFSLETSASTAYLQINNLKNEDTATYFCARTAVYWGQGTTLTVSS VL: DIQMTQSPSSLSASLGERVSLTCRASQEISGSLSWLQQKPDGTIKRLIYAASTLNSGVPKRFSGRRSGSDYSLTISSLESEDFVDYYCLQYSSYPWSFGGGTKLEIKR

>  <relative binding activity (% of WT), %>
94

$$$$
>  <BINDER>
murine monoclonal antibody 4D2 (antibody, mouse IgG1, V domains shown, Mouse IgG1, kappa, from hybridoma; also called m338-4D2.20) VH: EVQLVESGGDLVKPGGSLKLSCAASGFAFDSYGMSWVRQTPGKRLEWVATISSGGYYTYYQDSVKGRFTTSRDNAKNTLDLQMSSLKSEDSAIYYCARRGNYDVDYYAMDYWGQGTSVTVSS VL: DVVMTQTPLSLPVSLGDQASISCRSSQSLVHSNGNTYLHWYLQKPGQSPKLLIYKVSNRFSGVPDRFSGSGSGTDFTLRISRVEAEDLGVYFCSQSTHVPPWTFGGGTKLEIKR

>  <relative binding activity (% of WT), %>
52

$$$$
>  <BINDER>
murine monoclonal antibody 1G10 (antibody, mouse IgG1, V domains shown, Mouse IgG1, kappa, from hybridoma; also called m290-1G10) VH: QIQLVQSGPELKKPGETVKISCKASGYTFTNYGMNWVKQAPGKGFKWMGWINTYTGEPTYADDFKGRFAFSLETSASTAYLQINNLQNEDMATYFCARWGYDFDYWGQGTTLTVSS VL: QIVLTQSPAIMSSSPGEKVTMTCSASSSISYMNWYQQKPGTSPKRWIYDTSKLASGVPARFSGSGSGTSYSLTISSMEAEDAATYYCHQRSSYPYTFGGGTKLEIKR

>  <relative binding activity (% of WT), %>
1

$$$$
